These entries and their values trace back to patent US20180022822A1.

Molecular target: T1, recombinant human FAP (sFAP, FAP) versus CD26 and unrelated human antigens (A-N) (Homo sapiens, UniProt Q12884)
T1 sequence (Q12884 26-760 limits assumed): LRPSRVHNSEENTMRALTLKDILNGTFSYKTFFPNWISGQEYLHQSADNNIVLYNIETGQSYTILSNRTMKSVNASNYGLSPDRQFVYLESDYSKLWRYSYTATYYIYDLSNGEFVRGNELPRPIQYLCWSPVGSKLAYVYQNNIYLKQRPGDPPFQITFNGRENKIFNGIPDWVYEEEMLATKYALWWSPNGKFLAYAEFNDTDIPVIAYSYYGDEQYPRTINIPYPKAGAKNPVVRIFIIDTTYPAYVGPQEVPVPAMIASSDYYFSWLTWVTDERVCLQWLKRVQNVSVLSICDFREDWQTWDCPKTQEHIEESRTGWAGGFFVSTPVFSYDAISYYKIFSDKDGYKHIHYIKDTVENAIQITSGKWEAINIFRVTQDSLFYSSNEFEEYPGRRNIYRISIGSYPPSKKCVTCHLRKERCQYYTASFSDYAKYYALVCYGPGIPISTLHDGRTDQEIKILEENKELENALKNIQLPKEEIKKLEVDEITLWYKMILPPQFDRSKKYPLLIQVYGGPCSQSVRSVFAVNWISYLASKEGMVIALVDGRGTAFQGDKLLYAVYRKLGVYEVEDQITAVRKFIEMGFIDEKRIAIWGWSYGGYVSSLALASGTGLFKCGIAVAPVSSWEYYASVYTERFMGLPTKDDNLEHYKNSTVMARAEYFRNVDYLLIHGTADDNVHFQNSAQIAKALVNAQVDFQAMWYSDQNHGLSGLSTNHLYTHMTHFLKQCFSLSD
Assay: binding specificity ELISA against FAP versus unrelated human antigens
Details: detection antibody at 20, 4 and 0.8 nM
Recorded Endpoint: colorimetric ELISA signal against FAP versus panel of unrelated human antigens

NI-206.20A8: human-derived recombinant anti-FAP antibody; VH SEQ ID NO: 45, VL SEQ ID NO: 47 (antibody, listed as Homo sapiens, V domains shown) VH: EVQLVESGGGLVQPGGSLKLSCAGSGLDLSASAVHWVRQASGKGLEWIGRIRSKPNHYATTYLASVRGRFILSRDDSENTAYLQMNSLRTEDTAVYYCRIGILNSDHWGRGTLVTVSS VL: QSVLTQPPSASGTPGQTVIISCSGSSSNLGRKTLNWYQQLPGAAPKLLIFKNDQRASGVPDRFSASKSGTSASLTISGLQSDDEADYYCGTWDDSLDNWVFGGGTKVTVL
significantly greater
NI-206.6D3: human-derived recombinant anti-FAP antibody; VH SEQ ID NO: 49, VL SEQ ID NO: 51 (antibody, listed as Homo sapiens, V domains shown) VH: EVQLVESGGGLVKPGESLRLSCAASGFTFSKAWMNWVRQGPGKGLEWVGRVKSKTDGGTTDYAAPVKGRFTISRDDSKDTVFLQMNSLKTEDTAVYYCSIQFIVVGDRGRDDQYMDVWGKGTTVTVSS VL: SYVLTQPPSVSVSPGQTARITCSGDALPKQYAFWYQQKPGQAPVIMIYKDNQRPSGIPERFSGSSSGTTVTLTISGVQTEDEADYYCQSADSTNTHVVFGGGTKLTVL
significantly greater
NI-206.18H2: human-derived recombinant anti-FAP antibody; VH SEQ ID NO: 41, VL SEQ ID NO: 43 (antibody, listed as Homo sapiens, V domains shown) VH: QVQLQESGPRLVKPSETLSLTCTVSGYSISNGYYWGWIRQPPGQGLEWIASVWHSGNTYHNPSLKSRVTILVDTLKNQFSLNLKSVTAADTALYYCARSYTRNDVGAFETWGQGTMVTVSS VL: SYELTQPPSVSVSPGQTARIACSGDELPKRYAYWYQQKSGQAPVLVMYEDTKRPSGIPERLSGSSSGTVTTLTISGAQVEDEADYYCYSTAPSGNHTFVFGTGTRVTVL
significantly greater
